# System: L1210 leukemia ip in BDF1 mice, survival T/C
# measurementNotes: NCI In Vivo Anticancer Drug Screen. Data for tumor model L1210 Leukemia (intraperitoneal) in B6D2F1 (BDF1) mice
# conditionParameters: endpoint: mean survival time; dose: 400.0 mg/kg/injection; schedule: Q01DX001 (ip); vehicle: Klucel (hydroxypropylcellulose) (HPC); higher = longer survival
# Protocol: The antitumor activity of compounds was measured in mice bearing transplantable tumors. Survival or tumor size were measured and the results are expressed as the measurement made in the treated group (T) divided by the measurement made in the vehicle treated control group (C). The tumor model used in this assay is L1210 Leukemia (intraperitoneal) in B6D2F1 (BDF1) mice
Toxic doses and inconclusive results are not listed.
assayMetric: T/C

Example compounds with recorded T/C:
>>> print(df.to_string())
                                   compound  assaymetric            result
0  CCC(Cl)COP(=O)(CC(Cl)CC)OC(C)P(=O)(OCC(Cl)CC)OCC(Cl)CC (stereo unspecified)          T/C   97 % of control
1  C=C(C)c1ccc(C)cc1-c1c(OCc2ccccc2)ccc(CCCCC)c1OC          T/C   92 % of control
2         O=C(COc1ccc(Cl)c(Cl)c1)NCc1ccncc1          T/C  102 % of control
3               CCOC(=O)c1cn2ccc3ccccc3c2n1          T/C   98 % of control
4      CC(=O)OC(C(=O)c1ccccc1)C(=O)c1ccccc1          T/C   88 % of control

# input Give the measured T/C of CCC[n+]1nc2ccccc2c(=Nc2ccccc2[N+](=O)[O-])[n-]1 .
# output 98 % of control

# input Give the measured T/C of C/C(=C/c1c(C)c([N+](=O)[O-])c(C)c(C)c1[N+](=O)[O-])C(=O)O .
# output 107 % of control

# input Give the measured T/C of Cc1ccc(C(=O)C=Nc2ccc(Br)cc2)cc1 .
# output 112 % of control

# input Give the measured T/C of Cc1nc(N)[nH]c(=O)c1CCCNCc1ccccc1 .
# output 94 % of control

# input Give the measured T/C of COC1(OC)C2C=CC1C1C(=O)CC1C(=O)C2 (stereo unspecified) .
# output 90 % of control

# input Give the measured T/C of CC(C)C(C)/C=C/C(C)C1CCC2C3CC=C4CC(O)CCC4(C)C3CCC12C (stereo unspecified) .
# output 90 % of control
